Collected enrichment values appear next to each entry.
B1: NLV3 TCR beta chain (CDR3β only) (parent)
chain: ASSPTGGSPSPLH
partner: MLVPMVATV

# Variants of: B1
# assay_remarks: T-Switch: Jurkat TCRβ−/− cells expressing a CDR3 saturation-mutagenesis library, stained with two peptide-HLA-A*02:01 tetramers (original and novel peptide) plus anti-CD3, FACS-sorted into four gates, gDNA sequenced
# condition_details: with HLA-A*02:01 with peptide … (NLV 3-1, the original bait), tetramers 1 µg/mL, 30 min on ice, DP and SW gates expanded about 10 days between rounds ('two to three rounds of selection' in the Methods), gate SP: higher = more of the variant in the gate that binds the original peptide and not the novel one = retained original binding. Fold enrichment of the CDR3 variant in one FACS gate of a two-tetra, unresolved parent, parent is a CDR3 fragment, scale: fold enrichment, numbering: sequential-on-construct, sequence …
Just the number, please.

Below, 5 variants whose answers are already recorded.
INSERT INTO assay_data (mutation_descriptor, measurement_name, endpoint_value) VALUES
  ('[…] (CDR3 as printed); P4W derived by comparing it with the table''s wild-type CDR3 ASSPTGGSPSPLH', 'enrichment', 0),
  ('[…] (CDR3 as printed); G6H derived by comparing it with the table''s wild-type CDR3 ASSPTGGSPSPLH', 'enrichment', 0),
  ('[…] (CDR3 as printed); S2V derived by comparing it with the table''s wild-type CDR3 ASSPTGGSPSPLH', 'enrichment', 1.18),
  ('[…] (CDR3 as printed); S8Q derived by comparing it with the table''s wild-type CDR3 ASSPTGGSPSPLH', 'enrichment', 0),
  ('[…] (CDR3 as printed); S2Q derived by comparing it with the table''s wild-type CDR3 ASSPTGGSPSPLH', 'enrichment', 0);

**Query** Record request: enrichment value, item […] (CDR3 as printed); T5L derived by comparing it with the table's wild-type CDR3 ASSPTGGSPSPLH
**Result** 9.97

**Query** Data request, read-out enrichment, for […] (CDR3 as printed); L12Q derived by comparing it with the table's wild-type CDR3 ASSPTGGSPSPLH
**Result** 0

**Query** Could you share which enrichment value was measured for […] (CDR3 as printed); S10P derived by comparing it with the table's wild-type CDR3 ASSPTGGSPSPLH ?
**Result** 0

**Query** Report enrichment for […] (CDR3 as printed); S3I derived by comparing it with the table's wild-type CDR3 ASSPTGGSPSPLH please.
**Result** 0

**Query** Entry […] (CDR3 as printed); S8D derived by comparing it with the table's wild-type CDR3 ASSPTGGSPSPLH has what enrichment?
**Result** 0

**Query** Requested field: enrichment. Item: […] (CDR3 as printed); S2T derived by comparing it with the table's wild-type CDR3 ASSPTGGSPSPLH
**Result** 4.08
